Listing of recorded inhibition at 50 µM by entry.
- System: LOX human melanoma cell adhesion to human fibronectin
- TEST DETAILS: LOX melanoma cell adhesion to fibronectin
- Type: cell-based
- CONDITION INFO: Homo sapiens, LOX, 50 μM; read-out: % Inhibition at 50 μM
QUANTITY MEASURED: inhibition at 50 µM

[[record]]
compound = "CN1C2CCC1C1=C(C2)C(c2cccs2)c2ccccc21 (stereo not shown)"
endpoint_result = "64.4%"

[[record]]
compound = "CN1C2CCC1C1C(=C(c3ccccc3)c3ccc(F)cc31)C2 (stereo not shown)"
endpoint_result = "99.6%"

[[record]]
compound = "CN1C2CCC1C1C(=C(c3cccc(F)c3)c3cc(F)ccc31)C2 (stereo not shown)"
endpoint_result = "101%"

[[record]]
compound = "Cc1ccc(C2(O)c3ccccc3C3C4CCC(CC32)N4C)cc1 (stereo not shown)"
endpoint_result = "23.7%"

[[record]]
compound = "COc1ccc(C2C3=C(c4ccccc42)C2CCC(C3)N2)cc1 (stereo not shown)"
endpoint_result = "99.7%"

[[record]]
compound = "COc1ccc(C2=C3CC4CCC(C3c3ccccc32)N4C)cc1 (stereo not shown)"
endpoint_result = "97.1%"

[[record]]
compound = "CN1C2CCC1C1c3ccccc3C(O)(c3cccc(F)c3)C1C2 (stereo not shown)"
endpoint_result = "17.6%"

[[record]]
compound = "CN1C2CCC1C1C(=C(c3cccc(F)c3)c3ccc(F)cc31)C2 (stereo not shown)"
endpoint_result = "99.8%"

[[record]]
compound = "COc1ccc(C2(O)c3ccccc3C3C4CCC(CC32)N4)cc1 (stereo not shown)"
endpoint_result = "33.7%"

[[record]]
compound = "CN1C2CCC1C1c3ccccc3C(O)(c3ccccc3C(F)(F)F)C1C2 (stereo not shown)"
endpoint_result = "16.1%"


====

Listing of recorded pIC50 by entry.
- Tested on: LOX human melanoma cell adhesion to human fibrinogen
- TEST DETAILS: LOX cell adhesion to fibrinogen
- Assay type: cell-based
- CONDITION INFO: read-out: Fibrinogen IC50
pIC50: −log10 of the molar value.
QUANTITY MEASURED: pIC50

[[record]]
compound = "CN1C2CCC1C1C(=C(c3ccccc3C(F)(F)F)c3ccccc31)C2 (stereo not shown)"
endpoint_result = 4.80

[[record]]
compound = "CN1C2CCC1C1C(=C(c3ccc(Cl)cc3)c3ccccc31)C2 (stereo not shown)"
endpoint_result = 5.21

[[record]]
compound = "Cc1ccc(C2=C3CC4CCC(C3c3ccccc32)N4C)cc1 (stereo not shown)"
endpoint_result = 4.87

[[record]]
compound = "COc1ccc(C2=C3CC4CCC(N4)C3c3ccccc32)cc1 (stereo not shown)"
endpoint_result = 5.00


====

- Test system: LOX human melanoma cells
- TEST DETAILS: Tumor cell invasion through collagen/fibronectin coated membranes
- Type: cell-based
- CONDITION INFO: Homo sapiens; 5 hours; read-out: Invasion IC50 (text)
pIC50: −log10 of the molar value.
QUANTITY MEASURED: pIC50

[[record]]
compound = "COc1ccc(C2=C3CC4CCC(N4)C3c3ccccc32)cc1 (stereo not shown)"
tested_target = "LOX human melanoma cells"
endpoint_result = "> 6.40"


====

Listing of recorded ED50 by entry.
- Tested on: methamphetamine toxicity
- TEST DETAILS: Methamphetamine toxicity test in mice
- Assay type: in vivo
- CONDITION INFO: Mus musculus, read-out: METHA ED50
QUANTITY MEASURED: ED50

[[record]]
molecule = "COc1ccc(C2C3=C(c4ccccc42)C2CCC(C3)N2C)cc1OC (stereo not shown) [AA]"
endpoint_result = "> 30 mg/kg"

[[record]]
molecule = "COc1ccc(C2C3=C(c4ccccc42)C2CCC(C3)N2C)cc1 (stereo not shown) [Y]"
endpoint_result = "> 30 mg/kg"

[[record]]
molecule = "COc1ccc2c(c1)C1=C(CC3CCC1N3C)C2c1ccccc1 (stereo not shown) [Z]"
endpoint_result = "> 30 mg/kg"

[[record]]
molecule = "COc1ccc(C2(O)c3ccccc3C3C4CCC(CC32)N4)cc1 (stereo not shown) [JJ]"
endpoint_result = "> 30 mg/kg"

[[record]]
molecule = "CN1C2CCC1C1=C(C2)C(c2ccc(F)cc2)c2ccccc21 (stereo not shown) [W]"
endpoint_result = "8.9 mg/kg"

[[record]]
molecule = "CN1C2CCC1C1C(=C(c3ccc(F)cc3)c3ccccc31)C2 (stereo not shown) [K]"
endpoint_result = "14.9 mg/kg"

[[record]]
molecule = "COc1ccc(C2C3=C(c4ccccc42)C2CCC(C3)N2)cc1 (stereo not shown) [Compound X]"
endpoint_result = "> 60 mg/kg"

[[record]]
molecule = "COc1ccc(C2=C3CC4CCC(C3c3ccccc32)N4C)cc1 (stereo not shown) [R]"
endpoint_result = "> 30 mg/kg"

[[record]]
molecule = "COc1ccc2c(c1)C(c1ccccc1)C1=C2C2CCC(C1)N2 (stereo not shown) [FF]"
endpoint_result = "> 30 mg/kg"

[[record]]
molecule = "CN1C2CCC1C1c3ccccc3C(O)(c3ccccc3)C1C2 (stereo not shown) [AAA]"
endpoint_result = "> 30 mg/kg"

[[record]]
molecule = "CN1C2CCC1C1c3ccccc3C(O)(c3ccc(F)cc3)C1C2 (stereo not shown) [SS]"
endpoint_result = "> 30 mg/kg"

[[record]]
molecule = "COc1ccc2c(c1)C1C3CCC(CC1C2(O)c1ccccc1)N3C (stereo not shown) [UU]"
endpoint_result = "> 30 mg/kg"

[[record]]
molecule = "COc1ccc(C2=C3CC4CCC(N4)C3c3ccccc32)cc1 (stereo not shown) [Compound B]"
endpoint_result = "> 30 mg/kg"


# credit: patent US5461057A
